B1: ZNF511 (parent)
chain: EPLPVERDPAAGAAPFRFVARPVR

- Variants of: B1
- assay-name: protein stability index of a GFP-peptide fusion (GPS, HEK-293T) (PSI 1-6); higher = more stable;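 also: lentivirally expressed fusions sorted by FACS into six bins by GFP to DsRed ratio, PSI derived from sequencing read proportions per bin multiplied by bin number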
- assay-context: c terminus: a fixed tail appended
Returns one of fulfilled or not fulfilled; fulfilled when protein stability index is >= 2.

[[record]]
mutation_descriptor = "A13I"
category_label = "not fulfilled"

[[record]]
mutation_descriptor = "R24Y"
category_label = "not fulfilled"

[[record]]
mutation_descriptor = "R17L"
category_label = "fulfilled"

[[record]]
mutation_descriptor = "L3R"
category_label = "fulfilled"

[[record]]
mutation_descriptor = "E1G"
category_label = "not fulfilled"


Item "G12V" with protein stability index of 2 or above? not fulfilled

Likewise for "F16D" ? fulfilled

Do the same for "A20E" please fulfilled

Would you kindly repeat that for "A20R" ? not fulfilled

Entry "R17D" please fulfilled

The measurements presented in this section are drawn from the supplement of paper PMC10567573.
